Reported MIC values are given for each entry in this list.
system: Staphylococcus aureus; assay: Compound was tested in vitro for its minimum inhibitory concentration by serial 2-fold agar dilution Muller Hinton method against Staphylococcus aureus 503; assay type: functional

| compound | testSystem | MIC / µg/mL |
| --- | --- | --- |
| C=CCO/N=C(\C(=O)NC1C(=O)N2C(C(=O)[O-])=C(CN(C)c3sc4c([n+]3C)CCCC4)CSC12)c1csc(N)n1 (configuration not stated) | Staphylococcus aureus | 0.195 |
| CO/N=C(\C(=O)NC1C(=O)N2C(C(=O)[O-])=C(CN(C)c3sc4c([n+]3C)CCCC4)CSC12)c1csc(N)n1 (configuration not stated) | Staphylococcus aureus | 0.195 |
| CO/N=C(\C(=O)NC1C(=O)N2C(C(=O)[O-])=C(CN(C)c3scc[n+]3C)CSC12)c1csc(N)n1 (configuration not stated) | Staphylococcus aureus | 0.391 |
| CO/N=C(\C(=O)N[C@@H]1C(=O)N2C(C(=O)O)=C(COC(C)=O)CS[C@H]12)c1csc(N)n1 | Staphylococcus aureus | 0.781 |
| CO/N=C(\C(=O)NC1C(=O)N2C(C(=O)[O-])=C(CN(C)c3scc(C)[n+]3C)CSC12)c1csc(N)n1 (configuration not stated) | Staphylococcus aureus | 0.781 |
| C=CCO/N=C(\C(=O)NC1C(=O)N2C(C(=O)[O-])=C(CN(C)c3scc(C)[n+]3C)CSC12)c1csc(N)n1 (configuration not stated) | Staphylococcus aureus | 0.195 |
| CCO/N=C(\C(=O)NC1C(=O)N2C(C(=O)[O-])=C(CN(C)c3sc(C(=O)OCC)c(C)[n+]3C)CSC12)c1csc(N)n1 (configuration not stated) | Staphylococcus aureus | 0.781 |

====

tested on: Staphylococcus aureus; experiment: Compound was tested in vitro for its minimum inhibitory concentration by serial 2-fold agar dilution Muller Hinton method against Staphylococcus aureus 503; assay type: functional
endpointName: MIC

| molecule | dataValue |
| --- | --- |
| CCOC(=O)c1sc(N(C)CC2=C(C(=O)[O-])N3C(=O)C(NC(=O)/C(=N\OC)c4csc(N)n4)C3SC2)[n+](C)c1C (centres undefined) | 0.781 µg/mL |
| CO/N=C(\C(=O)NC1C(=O)N2C(C(=O)[O-])=C(CN(C)c3sc(C)c(C)[n+]3C)CSC12)c1csc(N)n1 (centres undefined) | 0.781 µg/mL |
| CO/N=C(\C(=O)NC1C(=O)N2C(C(=O)[O-])=C(CN(C)c3sc(C(N)=O)c(C)[n+]3C)CSC12)c1csc(N)n1 (centres undefined) | 0.195 µg/mL |
| C=CCO/N=C(\C(=O)NC1C(=O)N2C(C(=O)[O-])=C(CN(C)c3sc(C(=O)OCC)c(C)[n+]3C)CSC12)c1csc(N)n1 (centres undefined) | 0.391 µg/mL |

====

test system: Escherichia coli; assay: Compound was tested in vitro for its minimum inhibitory concentration by serial 2-fold agar dilution Muller Hinton method against Escherichia coli 1507E; format: functional
endpointName: log10 of MIC (log10 of the value in µg/mL)

| compound | testSystem | log10 of MIC |
| --- | --- | --- |
| CO/N=C(\C(=O)NC1C(=O)N2C(C(=O)[O-])=C(CN(C)c3sc4c([n+]3C)CCCC4)CSC12)c1csc(N)n1 (centres undefined) | Escherichia coli | -1.31 |
| CO/N=C(\C(=O)NC1C(=O)N2C(C(=O)[O-])=C(CN(C)c3sc(C(N)=O)c(C)[n+]3C)CSC12)c1csc(N)n1 (centres undefined) | Escherichia coli | -1.31 |
| C=CCO/N=C(\C(=O)NC1C(=O)N2C(C(=O)[O-])=C(CN(C)c3sc(C(=O)OCC)c(C)[n+]3C)CSC12)c1csc(N)n1 (centres undefined) | Escherichia coli | -1.01 |
| CCOC(=O)c1sc(N(C)CC2=C(C(=O)[O-])N3C(=O)C(NC(=O)/C(=N\OC)c4csc(N)n4)C3SC2)[n+](C)c1C (centres undefined) | Escherichia coli | -1.01 |
| CO/N=C(\C(=O)NC1C(=O)N2C(C(=O)[O-])=C(CN(C)c3scc[n+]3C)CSC12)c1csc(N)n1 (centres undefined) | Escherichia coli | -1.01 |
| CCO/N=C(\C(=O)NC1C(=O)N2C(C(=O)[O-])=C(CN(C)c3sc4c([n+]3C)CCCC4)CSC12)c1csc(N)n1 (centres undefined) | Escherichia coli | -0.71 |
| CO/N=C(\C(=O)N[C@@H]1C(=O)N2C(C(=O)O)=C(COC(C)=O)CS[C@H]12)c1csc(N)n1 | Escherichia coli | -1.60 |
| CCO/N=C(\C(=O)NC1C(=O)N2C(C(=O)[O-])=C(CN(C)c3scc(C)[n+]3C)CSC12)c1csc(N)n1 (centres undefined) | Escherichia coli | -1.01 |
| CCO/N=C(\C(=O)NC1C(=O)N2C(C(=O)[O-])=C(CN(C)c3sc(C(=O)OCC)c(C)[n+]3C)CSC12)c1csc(N)n1 (centres undefined) | Escherichia coli | -1.01 |
| C=CCO/N=C(\C(=O)NC1C(=O)N2C(C(=O)[O-])=C(CN(C)c3sc4c([n+]3C)CCCC4)CSC12)c1csc(N)n1 (centres undefined) | Escherichia coli | -0.41 |
| C=CCO/N=C(\C(=O)NC1C(=O)N2C(C(=O)[O-])=C(CN(C)c3scc(C)[n+]3C)CSC12)c1csc(N)n1 (centres undefined) | Escherichia coli | -0.71 |
| CO/N=C(\C(=O)NC1C(=O)N2C(C(=O)[O-])=C(CN(C)c3scc(C)[n+]3C)CSC12)c1csc(N)n1 (centres undefined) | Escherichia coli | -1.31 |
| CO/N=C(\C(=O)NC1C(=O)N2C(C(=O)[O-])=C(CN(C)c3sc(C)c(C)[n+]3C)CSC12)c1csc(N)n1 (centres undefined) | Escherichia coli | -1.31 |
| CO/N=C(\C(=O)N[C@@H]1C(=O)N2C(C(=O)[O-])=C(C[n+]3cccc4c3CCC4)CS[C@H]12)c1csc(N)n1 | Escherichia coli | -1.60 |
